From: patent US20240417469A1

Target: T1, recombinant CD3D&E protein (human CD3-his tag) (human, UniProt P04234 22-105; P07766 23-126, limits assumed)
T1 construct: Analyte in Biacore; also called CD3D&E-His; CD3d&ε-His
T1 sequence (P04234 22-105 limits assumed, chain 1 of 2): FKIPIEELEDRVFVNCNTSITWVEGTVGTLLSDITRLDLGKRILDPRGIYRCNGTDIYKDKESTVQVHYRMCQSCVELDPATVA
T1 sequence (P07766 23-126 limits assumed, chain 2 of 2): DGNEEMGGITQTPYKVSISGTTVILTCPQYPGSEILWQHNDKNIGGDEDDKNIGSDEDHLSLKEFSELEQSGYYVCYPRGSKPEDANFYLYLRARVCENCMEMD
Experiment: SPR Biacore, Ab captured on Protein A;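 note: humanized antibodies on a Protein A chip, human CD3-his analyte flowed over in serial dilutions for 3 min, dissociation tracked 120–360 s on a Biacore T200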
The label depends only on koff: true if it is at least 0.006 s⁻¹, false if it is smaller.

Answered cases to consult:
binder | qualitative.label
Hu155A9B1-16 (antibody, V domains shown, humanized mAb; also called 155z16) VH: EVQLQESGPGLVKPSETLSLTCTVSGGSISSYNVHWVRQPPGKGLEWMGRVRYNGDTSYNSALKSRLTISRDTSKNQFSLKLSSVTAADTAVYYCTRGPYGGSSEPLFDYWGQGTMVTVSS VL: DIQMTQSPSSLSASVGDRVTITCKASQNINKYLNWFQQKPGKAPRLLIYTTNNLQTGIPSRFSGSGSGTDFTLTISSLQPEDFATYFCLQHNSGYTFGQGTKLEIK | true
Hu192A7B9-15 (antibody, V domains shown, humanized mAb) VH: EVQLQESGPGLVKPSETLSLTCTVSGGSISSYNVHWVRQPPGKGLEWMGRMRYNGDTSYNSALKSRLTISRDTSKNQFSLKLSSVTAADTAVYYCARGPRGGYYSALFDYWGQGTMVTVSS VL: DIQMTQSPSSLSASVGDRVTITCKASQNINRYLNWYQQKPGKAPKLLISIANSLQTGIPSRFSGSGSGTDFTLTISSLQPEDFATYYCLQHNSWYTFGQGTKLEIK | true
Hu153A6B1-6 (antibody, V domains shown, humanized mAb) VH: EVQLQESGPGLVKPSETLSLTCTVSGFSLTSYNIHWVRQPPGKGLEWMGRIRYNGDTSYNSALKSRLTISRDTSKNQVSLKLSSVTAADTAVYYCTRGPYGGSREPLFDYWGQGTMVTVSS VL: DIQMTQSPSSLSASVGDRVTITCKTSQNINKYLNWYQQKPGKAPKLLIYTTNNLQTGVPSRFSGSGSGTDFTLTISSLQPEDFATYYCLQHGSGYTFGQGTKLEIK | false
Hu192A7B9-20 (antibody, V domains shown, humanized mAb) VH: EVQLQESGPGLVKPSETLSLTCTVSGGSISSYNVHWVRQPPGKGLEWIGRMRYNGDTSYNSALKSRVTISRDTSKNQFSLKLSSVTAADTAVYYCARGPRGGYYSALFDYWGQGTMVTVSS VL: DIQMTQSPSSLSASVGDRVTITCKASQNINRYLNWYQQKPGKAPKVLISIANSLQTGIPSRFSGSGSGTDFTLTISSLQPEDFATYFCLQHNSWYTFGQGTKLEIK | false

Below: the item to evaluate.
Reported koff at or above 0.006 s⁻¹? 192A7B9 chimeric mAb (antibody, V domains shown, Chimeric mAb) VH: QVQLKESGPGLVQPSQTLSLNCTVSGFSLTSYNVHWVRQPPGKGLEWMGRMRYNGDTSYNSALKSRLSISRDTSKNQVFLKMNSLQTDDTGTYYCTRGPRGGYYSALFDYWGQGVMVTVSS VL: DIQMTQSPSFLSASVGDRVTINCKASQNINRYLNWYQQKLGDAPKVLISIANSLQTGIPSRFSGSGSGTDFTLTISSLQPEDVATYFCLQHNSWYTFGAGTKLELK false
